MEASUREMENT DESCRIPTION: pKa by automated Mettler Toledo titration
EXPERIMENTAL CONDITIONS: water (50 weight % aqueous amine solution)
ENDPOINT LABEL: pKa
Please reply with the number alone, leaving off any unit.

Tell me pKa reported for OCC(O)CN1CCNCC1 (stereo not shown)
9.5

The reported measurements were obtained from patent US9518240B2.
